# assay_method_text: clinical
# cond: human, in vivo
experimental_readout: Tmax

Query: Using the record for C#CC[C@@H](C(=O)N[C@H](/C=C/C(=O)OCC)C[C@@H]1CCNC1=O)n1cccc(NC(=O)c2cc(C)on2)c1=O , report its Tmax.
Response: 15 to 30 min

###

# assay_method_text: clinical
# cond: human, in vivo, po, 200 mg, t1/2
experimental_readout: half-life (min)
Answer in min, number only, no unit symbol.

Query: Please give the measured half-life for this compound: C#CC[C@@H](C(=O)N[C@H](/C=C/C(=O)OCC)C[C@@H]1CCNC1=O)n1cccc(NC(=O)c2cc(C)on2)c1=O [V-7404]
Response: 18.9

Reference for the values: paper PMC8448163
